Listed compounds paired with reported IC50
- target_system: hNET (Homo sapiens)
- Sequence (P23975 whole entry): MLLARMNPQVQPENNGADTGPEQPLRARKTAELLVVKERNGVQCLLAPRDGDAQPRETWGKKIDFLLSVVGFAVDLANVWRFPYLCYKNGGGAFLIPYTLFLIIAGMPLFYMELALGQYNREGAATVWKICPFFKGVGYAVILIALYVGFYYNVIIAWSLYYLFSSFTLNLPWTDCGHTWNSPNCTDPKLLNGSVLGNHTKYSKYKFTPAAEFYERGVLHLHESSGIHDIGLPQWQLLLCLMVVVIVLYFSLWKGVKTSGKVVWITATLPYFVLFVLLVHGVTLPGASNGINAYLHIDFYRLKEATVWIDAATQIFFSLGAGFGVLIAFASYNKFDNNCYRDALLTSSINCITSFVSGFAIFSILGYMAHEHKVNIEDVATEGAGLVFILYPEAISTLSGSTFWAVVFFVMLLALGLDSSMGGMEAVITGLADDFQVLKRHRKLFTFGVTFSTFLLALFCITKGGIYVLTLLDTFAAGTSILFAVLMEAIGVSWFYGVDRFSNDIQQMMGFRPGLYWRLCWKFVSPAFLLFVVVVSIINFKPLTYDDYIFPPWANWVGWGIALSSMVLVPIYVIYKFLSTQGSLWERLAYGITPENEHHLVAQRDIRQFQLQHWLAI
- assay_protocol: radioligand uptake inhibition assay ([3H]MPP+)
- condition_notes: HEK293 stably expressing hNET; 20 nM [3H]MPP+; mean and SD, N = 3-6; read-out: IC50, uptake inhibition at NET (hNET)
Quick reminder: number only, in µM, skip the unit.

CCN(CC)c1ccc(-c2cc[n+]3c(-c4ccccc4)c(N4CCCC4)n(CCCCCCC(=O)NCc4ccc5c(c4)CO[C@@]5(CCCN(C)C)c4ccc(F)cc4)c3c2)cc1 [PYR-C6-CIT, PyrAte-C6-(S)-citalopram] : 12.6

Query: Recorded IC50 of CCN(CC)c1ccc(-c2cc[n+]3c(-c4ccccc4)c(N4CCCC4)n(CCCC(=O)NCc4ccc5c(c4)CO[C@@]5(CCCN(C)C)c4ccc(F)cc4)c3c2)cc1 [PYR-C3-CIT, PyrAte-C3-(S)-citalopram] , please.
Response: 10.9
